Target: T1, HLA-A*24:02 molecule
T1 construct: MHC class I molecule on C1R-A24 cells, endogenous peptide and b2m stripped at pH 3.3, purified b2m added back; also called product of an HLA-A*24:02 gene; allele A*24:02
Assay: flow cytometry, C1R-A24 cells;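 also: Read-out was the amount of peptide–MHC complex on each cell, taken as the fluorescence intensity of a bound fluorescent antibody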
result-type: log10 Kd (M)
Just the number, please.

# example entries with known answers
binder	log10 Kd (M)
HMTSSERPF (synthetic 9-mer derived from Helios) [peptide of SEQ ID NO: 64]	-4.16
LHITRKSFI (synthetic 9-mer derived from Fas) [peptide of SEQ ID NO: 63]	-4.76

Now for a further binder.
In: Given the binder CMIVHQGTI (synthetic 9-mer derived from c-Myb) [peptide of SEQ ID NO: 36] , write its reported log10 Kd (M).
Out: -5.54
